- Protocol summary: Probe fluorescence ratio response to linolenic acid relative to ADIFAB2
- Format: binding
- Test conditions: response relative to ADIFAB2
Record form. Attribute: DR/DR LNA. Fill in for each entry.
Number only, please.

The recorded DR/DR LNA for entry 49N1, 72A (protein, listed as Rattus norvegicus, PEPTIDE (1)...(131) wild-type rat intestinal fatty acid binding protein) AFDGTWKVDRNENYEKFMEKMGINVVKRKLGAHDNLKLTITQEGNKFTNKESSNFRNIDVVFELGVDFAYSAADGTELTGTWTMEGNKLVGKFKRVDNGKELIAVREISGNELIQTYTYEGVEAKRIFKKE equals 1.18

The recorded DR/DR LNA for entry 72S 73Q 74A (protein, listed as Rattus norvegicus, PEPTIDE (1)...(131) wild-type rat intestinal fatty acid binding protein) AFDGTWKVDRNENYEKFMEKMGINVVKRKLGAHDNLKLTITQEGNKFTVKESSNFRNIDVVFELGVDFAYSSQAGTELTGTWTMEGNKLVGKFKRVDNGKELIAVREISGNELIQTYTYEGVEAKRIFKKE equals 2.077
